Data credit: patent US20240270751A1

Assay system DGKα (Homo sapiens (Human), UniProt P23743); read-out recorded as IC50.

Use these answered entries as a reference point.
compound	measurementType	observedMeasurement
C#CCn1cc2c(n1)c(N1C[C@@H](C)N(C(C)c3ccc4nccnc4c3)C[C@@H]1C)cc(=O)n2C (stereo partly drawn)	IC50	5.3 µM
CC[C@H]1CN(C(C)c2ccc(F)cc2C(F)(F)F)[C@H](CC)CN1c1cc(=O)n(C)c2cn(CC#N)nc12 (single isomer, unassigned) [Compound A196b]	IC50	93.2 µM
CC[C@H]1CN(C(C)c2ccc(F)cc2COC)[C@H](CC)CN1c1cc(=O)n(C)c2cn(CC#N)nc12 (stereo partly drawn)	IC50	2.48 µM
CC(c1ccc2ncc(CO)nc2c1)N1C[C@H](C)N(c2cc(=O)n(C)c3cn(CC#N)nc23)C[C@H]1C (single isomer, unassigned) [Compound A309a]	IC50	118 µM
CC[C@H]1CN(C(C)c2ccc(C(C)(C)C#N)cc2)[C@H](CC)CN1c1cc(=O)n(C)c2cn(CC#N)nc12 (stereo partly drawn)	IC50	0.527 µM

Provide IC50 for all items below, preserving their order.
1. C[C@H](c1ccc2nccnc2c1)N1CCN(c2cc(=O)n(C)c3cn(CC#N)nc23)CC1C(N)=O (single isomer, unassigned) [Compound A198b]
2. CC[C@H]1CN(C(C)c2ccc(F)cc2NC)[C@H](CC)CN1c1cc(=O)n(C)c2cn(CC#N)nc12 (stereo partly drawn)
3. C[C@@H]1CN(c2cc(=O)n(C)c3c(C(F)(F)F)n(CC#N)nc23)[C@@H](C)CN1[C@@H](C)c1ccc2nccnc2c1 (single isomer, unassigned)
4. CC[C@H]1CN(C(C)c2ccccc2C(F)(F)F)[C@H](CC)CN1c1cc(=O)n(C)c2cn(CC#N)nc12 (single isomer, unassigned) [Compound A197a]
5. CC(c1ccc(F)cn1)N1C[C@H](C)N(c2cc(=O)n(C)c3cn(CC#N)nc23)C[C@H]1C (stereo partly drawn)

### Response
1: > 10 µM; 2: > 10 µM; 3: > 10 µM; 4: > 10 µM; 5: 0.16 µM

Provide IC50 for all items below, preserving their order.
1. CC(c1ccc(F)cc1CC#N)N1C[C@H](C)N(c2cc(=O)n(C)c3cn(CC#N)nc23)C[C@H]1C (single isomer, unassigned) [Compound A287b]
2. CC#CCn1cc2c(n1)c(N1C[C@@H](C)N(C(C)c3ccc4nccnc4c3)C[C@@H]1C)cc(=O)n2C (mixture of isomers)

### Response
["> 10 µM", "0.2 µM"]

----------
Assay system DGKα (Homo sapiens (Human), UniProt P23743); read-out recorded as IC50.
Answers are plain numbers, in µM.

compound	IC50 (µM)
CC[C@@H]1CN(c2c(F)c(=O)[nH]c3cn(CC#N)nc23)[C@@H](C)CN1C(C)c1ccc2nccnc2c1 (single isomer, unassigned) [Compound A194a]	6.35
CC[C@H]1CN(C(C)c2ncc(F)cc2C(F)(F)F)[C@H](CC)CN1c1cc(=O)n(C)c2cn(CC#N)nc12 (stereo partly drawn)	61.9
CC[C@H]1CN(C(C)c2ccc3ccncc3c2)[C@H](CC)CN1c1cc(=O)n(C)c2cn(CC#N)nc12 (stereo partly drawn)	0.04
CC[C@H]1CN(C(C)c2ccc(C(F)(F)F)cn2)[C@H](CC)CN1c1cc(=O)n(C)c2cn(CC#N)nc12 (single isomer, unassigned) [Compound A348b]	0.009
C[C@@H]1CN(c2cc(=O)n(C)c3cn(CC#N)nc23)[C@@H](C)CN1[C@H](C)c1ccc2nccnc2c1	19
CC[C@@H]1CN(c2cc(=O)n(C)c3cn(CC#N)nc23)[C@@H](CC)CN1C(=O)c1ccc(C2CC2)cc1	0.294

Provide IC50 for all items below, preserving their order.
1. CC[C@H]1CN(C(C)c2ccc(OC(F)(F)F)cc2)[C@H](CC)CN1c1cc(=O)n(C)c2cn(CC#N)nc12 (stereo partly drawn)
2. CC[C@H]1CN(C(C)c2ccc3nc(OC)cnc3c2)[C@H](CC)CN1c1cc(=O)n(C)c2cn(CC#N)nc12 (single isomer, unassigned) [Compound A281a]
3. CC[C@H]1CN(C(C)c2ccc(C(F)(F)F)cc2)[C@H](CC)CN1c1cc(=O)n(C)c2cn(CC#N)nc12 (single isomer, unassigned) [Compound A103a]

### Response
[0.0105, 6.65, 0.403]
